Value source: ChEMBL document CHEMBL3988442

- system-tested: Sialic acid-binding Ig-like lectin 9 (Homo sapiens) (UniProt Q9Y336)
- Sequence (Q9Y336 whole entry): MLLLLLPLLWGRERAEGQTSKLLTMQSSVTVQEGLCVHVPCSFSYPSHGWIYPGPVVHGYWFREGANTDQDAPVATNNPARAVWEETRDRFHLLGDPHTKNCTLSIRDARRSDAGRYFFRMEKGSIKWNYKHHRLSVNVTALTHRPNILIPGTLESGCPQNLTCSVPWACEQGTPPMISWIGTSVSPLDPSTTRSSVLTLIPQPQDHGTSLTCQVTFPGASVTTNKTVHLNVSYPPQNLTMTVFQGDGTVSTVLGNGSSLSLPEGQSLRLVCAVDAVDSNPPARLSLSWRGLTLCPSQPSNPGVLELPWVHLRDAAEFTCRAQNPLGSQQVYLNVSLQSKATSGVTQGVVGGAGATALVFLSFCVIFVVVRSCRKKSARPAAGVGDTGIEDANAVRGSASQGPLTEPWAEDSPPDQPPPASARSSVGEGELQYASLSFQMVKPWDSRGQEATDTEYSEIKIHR
- test-summary: Hs-Siglec9 ALPHAscreen SOP 20170721
- Set-up: scale not given: direction of the effect not stated beside the values
- experimental-conditions: 10 µM
measure: Percent Effect (%)
API: value field is a number in %; no unit string.

Look over these answered cases.
{"columns": ["compound", "measure", "result-value"],
 "data": [
  ["CC1c2ncc(CN3CCN(C)CC3)n2CCN1Cc1cccnc1 (stereo unspecified)", "Percent Effect", 1.22],
  ["CC(C)NC(=O)N1CC[C@@H]2CN(Cc3cccc(Cl)c3)S(=O)(=O)[C@@H]2CC1", "Percent Effect", -2.2],
  ["Cc1cccc(CCC(=O)N2CCCC(c3cc(C(N)=O)[nH]n3)C2)c1 (stereo unspecified)", "Percent Effect", 8.55]
]}

Task: I'm curious: which Percent Effect was measured for O=C(C1=CCCC1)N1CCC[C@]2(C[C@@H](Oc3ncccc3F)CO2)C1 tested on Sialic acid-binding Ig-like lectin 9 (Homo sapiens) (UniProt Q9Y336)?
Result: 6.71

Task: I'm curious: which Percent Effect was measured for Cn1cnnc1C1CCCN(C(=O)NCc2ccc3c(c2)OCO3)C1 (stereo unspecified) tested on Sialic acid-binding Ig-like lectin 9 (Homo sapiens) (UniProt Q9Y336)?
Result: -7.32

Task: I'm curious: which Percent Effect was measured for CS(=O)(=O)N1Cc2nccn2CC(Cn2ncccc2=O)C1 (stereo unspecified) tested on Sialic acid-binding Ig-like lectin 9 (Homo sapiens) (UniProt Q9Y336)?
Result: 5.03
